These measurements were taken from ChEMBL document CHEMBL1150294.

System: A-427
Test Method Notes: Antiproliferative activity against human A427 cells after 96 hrs by crystal violet assay
Type: functional, cell-based
Particulars: A-427, 96 h
Listed here are molecules together with their documented IC50.
Endpoint: IC50 (µM)

[[record]]
molecule = "O=C(O)CCCc1ccc(N(CCCl)CCCl)cc1"
endpoint = "IC50"
units_label = "µM"
readout_qualifier = "="
experimental_result = 9.5

[[record]]
molecule = "O=C1/C(=C2/C(=O)N([C@@H]3O[C@H](CO)[C@@H](O)[C@H](O)[C@@H]3O)c3ccccc32)Nc2ccccc21"
endpoint = "IC50"
units_label = "µM"
readout_qualifier = "="
experimental_result = 5.55

[[record]]
molecule = "COc1cc([C@@H]2c3cc4c(cc3[C@@H](O[C@@H]3O[C@@H]5CO[C@@H](C)O[C@H]5[C@H](O)[C@H]3O)[C@H]3COC(=O)[C@H]23)OCO4)cc(OC)c1O [ETOPOSIDE]"
endpoint = "IC50"
units_label = "µM"
readout_qualifier = "="
experimental_result = 0.13

[[record]]
molecule = "C[C@@H]1O[C@H](N2C(=O)/C(=C3\\Nc4ccccc4C3=O)c3ccccc32)[C@H](O)[C@H](O)[C@H]1O"
endpoint = "IC50"
units_label = "µM"
readout_qualifier = ">"
experimental_result = 12.5


###

System: A-427
Test Method Notes: Antiproliferative activity against human A427 cells after 96 hrs by crystal violet assay
Type: functional, cell-based
Particulars: A-427, 96 h
Endpoint: IC50 (µM)

[[record]]
molecule = "C[C@@H]1O[C@@H](N2C(=O)/C(=C3\\Nc4ccccc4C3=O)c3ccccc32)[C@H](O)[C@H](O)[C@H]1O"
target_or_test_system = "A-427"
units_label = "µM"
readout_qualifier = ">"
experimental_result = 25

[[record]]
molecule = "Nc1ncn([C@@H]2O[C@H](CO)[C@@H](O)[C@H]2O)c(=O)n1 [AZACITIDINE]"
target_or_test_system = "A-427"
units_label = "µM"
readout_qualifier = "="
experimental_result = 0.63

[[record]]
molecule = "O=C1/C(=C2/C(=O)N([C@@H]3O[C@H](CO)[C@@H](O)[C@H](O)[C@H]3O)c3ccccc32)Nc2ccccc21"
target_or_test_system = "A-427"
units_label = "µM"
readout_qualifier = "="
experimental_result = 11.8

[[record]]
molecule = "O=C1/C(=C2/C(=O)N([C@@H]3O[C@H](CO)[C@H](O)[C@H](O)[C@H]3O)c3ccccc32)Nc2ccccc21"
target_or_test_system = "A-427"
units_label = "µM"
readout_qualifier = "="
experimental_result = 13.2

